System: Vero
Assay: Cytotoxicity against African green monkey Vero cells measured at 48 hrs post dose
Type: cell-based
Conditions: chlorocebus sabaeus
Examples of compounds with documented CC50 follow.

| compound | bound sign | CC50, µM |
| --- | --- | --- |
| CCC(CC)O[C@@H]1C=C(C(=O)Nc2ccccc2OC)C[C@H](N)[C@H]1NC(C)=O | = | 150 |
| CCC(CC)O[C@@H]1C=C(C(=O)O)C[C@H](N)[C@H]1NC(C)=O [OSELTAMIVIR CARBOXYLATE] | > | 1000 |
| CCC(CC)O[C@@H]1C=C(C(=O)Nc2ccccc2OC)C[C@H](NC(=O)OC(C)(C)C)[C@H]1NC(C)=O | = | 753 |
| CCC(CC)O[C@@H]1C=C(C(=O)Nc2ccccc2)C[C@H](NC(=O)OC(C)(C)C)[C@H]1NC(C)=O | = | 752 |
| CCC(CC)O[C@@H]1C=C(C(=O)O)C[C@H](NC(=O)OC(C)(C)C)[C@H]1NC(C)=O | = | 750 |
| CCC(CC)O[C@@H]1C=C(C(=O)Nc2ccccc2)C[C@H](N)[C@H]1NC(C)=O | = | 150 |

Where do these numbers come from? They come from ChEMBL document CHEMBL4004840.
